The measured values listed here are drawn from ChEMBL document CHEMBL6103654.

# Subject Of Test: Cytochrome P450 2D6 (Homo sapiens, UniProt P10635)
# Sequence (P10635 whole entry): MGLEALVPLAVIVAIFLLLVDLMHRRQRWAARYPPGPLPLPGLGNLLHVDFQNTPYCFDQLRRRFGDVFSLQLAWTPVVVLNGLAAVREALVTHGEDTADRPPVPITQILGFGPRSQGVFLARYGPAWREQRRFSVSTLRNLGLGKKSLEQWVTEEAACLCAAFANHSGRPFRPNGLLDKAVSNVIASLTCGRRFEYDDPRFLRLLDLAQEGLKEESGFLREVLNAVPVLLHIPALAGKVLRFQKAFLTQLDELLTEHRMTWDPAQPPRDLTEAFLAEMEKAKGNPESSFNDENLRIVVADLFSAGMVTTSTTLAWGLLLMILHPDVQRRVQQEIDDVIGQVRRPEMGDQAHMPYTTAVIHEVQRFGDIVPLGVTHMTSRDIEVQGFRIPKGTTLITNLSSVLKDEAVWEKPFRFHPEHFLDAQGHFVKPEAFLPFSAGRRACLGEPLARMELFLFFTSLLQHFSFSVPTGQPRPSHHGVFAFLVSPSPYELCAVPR
pIC50: −log10 of the molar value.
Reported Endpoint: pIC50

Problem: Test system Cytochrome P450 2D6 (Homo sapiens, UniProt P10635); read-out pIC50; what value for "CC(C)(N)C(=O)N[C@H](COCc1ccccc1)C(=O)N1CCC2=NN(C3CC3)C(=O)[C@]2(Cc2ccccc2)C1" ?
Solution: < 4.52

----------
# Subject Of Test: Growth hormone secretagogue receptor type 1 (Rattus norvegicus)
# Experimental Protocol: Agonist activity at rat GHSR expressed in CHO cells at maximum concentration incubated for 60 min by FLIPR assay relative to control
# Format: functional, cell-based
# Condition Summary: filed as agonist
The reader will find reported Activity values listed item by item below.

Problem: What measured Activity goes with "CC(C)(N)C(=O)N[C@H](COCc1ccccc1)C(=O)N1CCC2=NN(C(F)(F)F)C(=O)[C@]2(Cc2ccccc2)C1" ?
Solution: 96%

Problem: What measured Activity goes with "CC(C)(N)C(=O)N[C@H](COCc1ccccc1)C(=O)N1CCC2=NN(C(C)(C)C)C(=O)[C@]2(Cc2ccccc2)C1" ?
Solution: 112%

Problem: What measured Activity goes with "CC(C)(N)C(=O)N[C@H](COCc1ccccc1)C(=O)N1CCC2=NN(CC3CC3)C(=O)[C@]2(Cc2ccccc2)C1" ?
Solution: 97.1%

Problem: What measured Activity goes with "CC(C)(N)C(=O)N[C@H](COCc1ccccc1)C(=O)N1CCC2=NN(C3CC3)C(=O)[C@]2(Cc2ccccc2)C1" ?
Solution: 96.7%

Problem: What measured Activity goes with "CC(C)(N)C(=O)N[C@H](COCc1ccccc1)C(=O)N1CCC2=NN(C3CC3)C(=O)[C@]2(Cc2ccccn2)C1" ?
Solution: 114%

Problem: What measured Activity goes with CN1N=C2CCN(C(=O)[C@@H](COCc3ccccc3)NC(=O)C(C)(C)N)C[C@@]2(Cc2ccccc2)C1=O [CAPROMORELIN] ?
Solution: 111%

Problem: What measured Activity goes with "CN1N=C2CCN(C(=O)[C@@H](COCc3ccccc3)NC(=O)C3CCNCC3)C[C@@]2(Cc2ccccc2)C1=O" ?
Solution: 106%

Problem: What measured Activity goes with "CC(C)(N)C(=O)N[C@H](COCc1ccccc1)C(=O)N1CCC2=NN(C3CCC3)C(=O)[C@]2(Cc2ccccc2)C1" ?
Solution: 104%

Problem: What measured Activity goes with "CC(C)(N)C(=O)N[C@H](COCc1ccccc1)C(=O)N1CCC2=NN(C3CCCC3)C(=O)[C@]2(Cc2ccccc2)C1" ?
Solution: 97.2%

----------
# Experimental Protocol: Cmax in male Sprague-Dawley rat at 2 mg/kg, po administered as single dose measured after 4 hrs
# Assay type: ADME, organism-based
# Condition Summary: in vivo
Reported Endpoint: Cmax (ng/mL)
Enter your answer as a number in ng/mL; do not include the unit.

# example entries with known answers
1. CC(C)(N)C(=O)N[C@H](COCc1ccccc1)C(=O)N1CCC2=NN(C(F)(F)F)C(=O)[C@]2(Cc2ccccc2)C1 | 219
2. CC(C)(N)C(=O)N[C@H](COCc1ccccc1)C(=O)N1CCC2=NN(C3CC3)C(=O)[C@]2(Cc2ccccn2)C1 | 139
3. CC(C)(N)C(=O)N[C@H](COCc1ccccc1)C(=O)N1CCC2=NN(C3CCC3)C(=O)[C@]2(Cc2ccccc2)C1 | 8.4
4. CC(C)(N)C(=O)N[C@H](COCc1ccccc1)C(=O)N1CCC2=NOC(=O)[C@]2(Cc2ccccc2)C1 | 54

Here's the next entry for you.
Problem: What measured Cmax goes with "CC(C)(N)C(=O)N[C@H](COCc1ccccc1)C(=O)N1CCC2=NN(C3CC3)C(=O)[C@]2(Cc2ccccc2)C1" ?
Solution: 156
